# Experiment description: Multiple ascending dose (MAD) study: multiple-dose pharmacokinetics
# Assay type: in vivo, human
# Condition label: human, plasma, oral, 40 mg, 40 mg BID × 14 Days, Day 14; read-out: Cmax, Mean
# Procedure: A multiple ascending dose (MAD) study of Compound 1 with two additional single-dose cohorts was also completed. […] In the MAD study, multiple-dose pharmacokinetics and pharmacodynamics of Compound 1 were evaluated in four dose groups administered Compound 1 (40, 80, 120 and 200 mg BID) in the fasted state for 14-days (Table 3). […]
Measured parameter: Cmax (ng/mL)

> print(dat)
                                 mol.smiles  measured
1  CC(=O)c1nn(CC(=O)N2[C@H](C(=O)Nc3nc(Br)ccc3C)C[C@@]3(C)C[C@@H]23)c2ccc(-c3cnc(C)nc3)cc12       156

###

# Experiment description: Multiple ascending dose (MAD) study: multiple-dose pharmacokinetics
# Format: in vivo, human
# Condition label: human, plasma, oral, 80 mg, 80 mg BID × 14 Days, Day 7
Measured parameter: Tmax (h)

> print(dat)
                                 mol.smiles  measured
1  CC(=O)c1nn(CC(=O)N2[C@H](C(=O)Nc3nc(Br)ccc3C)C[C@@]3(C)C[C@@H]23)c2ccc(-c3cnc(C)nc3)cc12         2

###

# Experiment description: Phase I single ascending dose (SAD) study: plasma and urine pharmacokinetics
# Format: in vivo, human
# Condition label: human, plasma, oral, 80 mg, 80 mg single dose, fasted, plasma; read-out: AUC0-inf, GM
Measured parameter: AUC(0-inf) (ng·h/mL)

> print(dat)
                                 mol.smiles  measured.parameter  unit.label  measured
1  CC(=O)c1nn(CC(=O)N2[C@H](C(=O)Nc3nc(Br)ccc3C)C[C@@]3(C)C[C@@H]23)c2ccc(-c3cnc(C)nc3)cc12          AUC(0-inf)     ng·h/mL      1260

###

# Experiment description: Phase I single ascending dose (SAD) study: plasma and urine pharmacokinetics
# Assay type: in vivo, human
# Condition label: human, urine, oral, 120 mg, 120 mg single dose, fasted, urine; read-out: CLr, Mean (converted)
Measured parameter: CL renal (mL/min)

> print(dat)
                                 mol.smiles  unit.label  measured
1  CC(=O)c1nn(CC(=O)N2[C@H](C(=O)Nc3nc(Br)ccc3C)C[C@@]3(C)C[C@@H]23)c2ccc(-c3cnc(C)nc3)cc12      mL/min       3.5

###

# Experiment description: Phase I single ascending dose (SAD) study: plasma and urine pharmacokinetics
# Format: in vivo, human
# Condition label: human, plasma and urine, oral, 40 mg to 120 mg single dose; read-out: Renal clearance, geometric mean, range over dose groups
Measured parameter: CL renal

> print(dat)
                                 mol.smiles  measured.parameter             measured
1  CC(=O)c1nn(CC(=O)N2[C@H](C(=O)Nc3nc(Br)ccc3C)C[C@@]3(C)C[C@@H]23)c2ccc(-c3cnc(C)nc3)cc12            CL renal  2.67 to 3.17 mL/min

###

# Experiment description: MAD study, two additional single-dose cohorts: pharmacokinetics
# Format: in vivo, human
# Condition label: human, plasma, oral; 120 mg single dose, fed moderate fat meal
Measured parameter: Tmax

> print(dat)
                                   compound  measured.parameter  measured
1  CC(=O)c1nn(CC(=O)N2[C@H](C(=O)Nc3nc(Br)ccc3C)C[C@@]3(C)C[C@@H]23)c2ccc(-c3cnc(C)nc3)cc12 [Compound 1]                Tmax    2.83 h
